# tested.target: S100B (Homo sapiens, UniProt P04271)
# Construct: made in house; host or cells: Escherichia coli BL21(DE3)
# Sequence (P04271 whole entry): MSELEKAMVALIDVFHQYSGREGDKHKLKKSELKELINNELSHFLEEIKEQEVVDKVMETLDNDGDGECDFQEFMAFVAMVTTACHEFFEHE
# procedure.summary: Pull-down assay with immobilized protein and LSM libraries
# Format: binding
# condition.description: H12 library; 1:1 binding assumed; read-out: Surface mapping KD (apparent)
pKd: −log10 of the molar value.
test.readout: pKd

1: CC[C@H](C)[C@@H](CC(=O)N[C@H]1CCC[C@@H]1C(=O)N[C@H]1CCC[C@@H]1C(N)=O)NC(=O)[C@H]1CCC[C@@H]1NC(=O)[C@H]1CCC[C@@H]1NC(=O)C[C@@H](NC(=O)[C@H]1CCC[C@@H]1NC(=O)[C@H]1CCC[C@@H]1N)[C@@H](C)CC
2: NC(=O)[C@H]1CCC[C@@H]1NC(=O)[C@H]1CCC[C@@H]1NC(=O)C[C@H](Cc1c[nH]c2ccccc12)NC(=O)[C@H]1CCC[C@@H]1NC(=O)[C@H]1CCC[C@@H]1NC(=O)C[C@H](Cc1c[nH]c2ccccc12)NC(=O)[C@H]1CCC[C@@H]1NC(=O)[C@H]1CCC[C@@H]1N
Could you tell me which of these two has the smaller pKd figure? First: 1 Second: 2 Indicate which entry you chose by stating its label. 1
(1: 4.60, 2: 5.10)

====

# tested.target: S100B (Homo sapiens, UniProt P04271)
# Construct: made in house; host or cells: Escherichia coli BL21(DE3)
# procedure.summary: Pull-down assay with immobilized protein and LSM libraries
# Type: binding
# condition.description: H12 library; 1:1 binding assumed; read-out: Surface mapping KD (apparent)
pKd: −log10 of the molar value.
test.readout: pKd

Below, each entry is followed by its recorded pKd result.
C[C@@H](O)[C@@H](CC(=O)N[C@H]1CCC[C@@H]1C(=O)N[C@H]1CCC[C@@H]1C(=O)N[C@H](CC(=O)N[C@H]1CCC[C@@H]1C(=O)N[C@H]1CCC[C@@H]1C(N)=O)Cc1c[nH]c2ccccc12)NC(=O)[C@H]1CCC[C@@H]1NC(=O)[C@H]1CCC[C@@H]1N; 3.95
CSCC[C@@H](CC(=O)N[C@H]1CCC[C@@H]1C(=O)N[C@H]1CCC[C@@H]1C(=O)N[C@@H](CC(=O)O)CC(=O)N[C@H]1CCC[C@@H]1C(=O)N[C@H]1CCC[C@@H]1C(N)=O)NC(=O)[C@H]1CCC[C@@H]1NC(=O)[C@H]1CCC[C@@H]1N; 3.33

a: CC(C)[C@@H](CC(=O)N[C@H]1CCC[C@@H]1C(=O)N[C@H]1CCC[C@@H]1C(=O)N[C@@H](CCCCN)CC(=O)N[C@H]1CCC[C@@H]1C(=O)N[C@H]1CCC[C@@H]1C(N)=O)NC(=O)[C@H]1CCC[C@@H]1NC(=O)[C@H]1CCC[C@@H]1N
b: NC(=O)[C@H]1CCC[C@@H]1NC(=O)[C@H]1CCC[C@@H]1NC(=O)C[C@H](Cc1c[nH]c2ccccc12)NC(=O)[C@H]1CCC[C@@H]1NC(=O)[C@H]1CCC[C@@H]1NC(=O)C[C@H](Cc1ccc(O)cc1)NC(=O)[C@H]1CCC[C@@H]1NC(=O)[C@H]1CCC[C@@H]1N
Compare pKd: is it lower for a or for b ? State your choice using its label. a

1: CC(C)[C@@H](CC(=O)N[C@H]1CCC[C@@H]1C(=O)N[C@H]1CCC[C@@H]1C(N)=O)NC(=O)[C@H]1CCC[C@@H]1NC(=O)[C@H]1CCC[C@@H]1NC(=O)C[C@H](CCCNC(=N)N)NC(=O)[C@H]1CCC[C@@H]1NC(=O)[C@H]1CCC[C@@H]1N
2: CC[C@H](C)[C@@H](CC(=O)N[C@H]1CCC[C@@H]1C(=O)N[C@H]1CCC[C@@H]1C(N)=O)NC(=O)[C@H]1CCC[C@@H]1NC(=O)[C@H]1CCC[C@@H]1NC(=O)C[C@H](Cc1ccccc1)NC(=O)[C@H]1CCC[C@@H]1NC(=O)[C@H]1CCC[C@@H]1N
// which entry has the larger pKd value, 1 or 2 ? Respond with the label that goes with your answer. 2
(2: 4.89, 1: 3.88)

P: NC(=O)[C@H]1CCC[C@@H]1NC(=O)[C@H]1CCC[C@@H]1NC(=O)C[C@H](Cc1c[nH]c2ccccc12)NC(=O)[C@H]1CCC[C@@H]1NC(=O)[C@H]1CCC[C@@H]1NC(=O)C[C@H](CO)NC(=O)[C@H]1CCC[C@@H]1NC(=O)[C@H]1CCC[C@@H]1N
Q: C[C@@H](O)[C@@H](CC(=O)N[C@H]1CCC[C@@H]1C(=O)N[C@H]1CCC[C@@H]1C(=O)N[C@@H](CCCCN)CC(=O)N[C@H]1CCC[C@@H]1C(=O)N[C@H]1CCC[C@@H]1C(N)=O)NC(=O)[C@H]1CCC[C@@H]1NC(=O)[C@H]1CCC[C@@H]1N
Hi, I'm comparing P with Q and wondering which one has the bigger number for pKd. Any idea? Reply briefly: the label of your chosen item. P
(P: 3.94, Q: 3.60)
